Measured GI50, listed per entry.
Test system: SF-268
measurement.notes: NCI tumour cell line growth inhibition, 48 h
The source made the active and inactive calls. Rule as the data show it: active = GI50 up to about 1.1 µM and inactive = higher.
readout.name: GI50

compound: Fc1ccc(C(OCCN2CC3CC2CN3)c2ccc(F)cc2)cc1 (stereo unspecified)
val: > 100 µM (inactive)
--
compound: CNC(C)C(O)c1ccc2oc3cc(=O)c4ccccc4c-3nc2c1 (stereo unspecified)
val: 27.2 µM (inactive)
--
compound: CCCCN(CCCC)C1=Nc2ccccc2-n2c(nnc2C(=O)OCC)C1
val: 50.9 µM (inactive)
--
compound: Cc1ccc(-c2cc(=O)c3cc(C)c(C)c(C(=O)O)c3o2)cc1N
val: > 100 µM (inactive)
--
compound: O=C(O)CCC(=O)N1c2ccccc2CC1c1c[nH]c2ccccc12 (stereo unspecified)
val: > 100 µM (inactive)
--
compound: CCOC1NC(=O)Oc2ccccc21 (stereo unspecified)
val: > 100 µM (inactive)
--
compound: CC12OC3(O)C4C5CC(C6C5C3C61)C42 (stereo unspecified)
val: > 100 µM (inactive)
--
compound: OCC(O)C(O)C(O)c1nn(-c2ccccc2)c2nc3cc(Cl)c(Cl)cc3nc12 (stereo unspecified)
val: 55.1 µM (inactive)
--
compound: Cc1nc(O)nc2nc3ccc(Cl)cc3c(NC(C)(CO)CO)c12
val: 40.6 µM (inactive)
--
compound: O=c1c(C(c2ccc3ccccc3c2)c2c(O)oc3cc(O)ccc3c2=O)c(O)oc2cc(O)ccc12
val: 15.9 µM (inactive)
--
compound: O=C1CC(C(OCc2ccccc2)C(OCc2ccccc2)C(COCc2ccccc2)OCc2ccccc2)CC(=O)N1 (stereo unspecified)
val: > 75 µM (inactive)
